Attribute: cell viability
# System: SEM cells
# PROTOCOL SUMMARY: cell viability relative to DMSO control; higher = less cytotoxic
# MEASUREMENT CONTEXT: HPLM + 10% dialyzed FBS; 48 h; 0.000781 µM
Give your result in % as a bare value.

// below: answered compounds
ClC1=C(N\C2=N\CCN2)C3=NSN=C3C=C1 :: 77.6
O=c1c(-c2ccc(O)cc2)coc2cc(O[C@@H]3O[C@H](CO)[C@@H](O)[C@H](O)[C@H]3O)ccc12 :: 114
COc1cc2c(cc1OC)C1CC(=O)C(CC(C)C)CN1CC2 (centres undefined) :: 84.5
CC\1=C/C=C\C=[N]1[Pt](N)(Cl)Cl :: 82
CC(C)n1nc(-c2cc3cc(O)ccc3[nH]2)c2c(N)ncnc21 :: 93.3
OC1=C(O)C2=C(\C=C/C(=O)O2)C=C1 :: 82.7
CC/1=C/C(=O)N(O)/C(=C1)C2CCCCC2 :: 82.9
CN1[C@@H]2CC[C@H]1CC(OC(=O)c1c[nH]c3ccccc13)C2 (some centres undefined) :: 111

Please indicate recorded cell viability of C[C@]12CC[C@@H]3c4ccc(OC(=O)N(CCCl)CCCl)cc4CC[C@H]3[C@@H]1CC[C@@H]2OP(=O)([O-])[O-].[Na+].[Na+] measured with SEM cells.
107

Please indicate recorded cell viability of C/C=C1\NC(=O)[C@H]2CSSCC/C=C\[C@H](CC(=O)N[C@H](C(C)C)C(=O)N2)OC(=O)[C@H](C(C)C)NC1=O measured with SEM cells.
81.1

Please indicate recorded cell viability of Cc1c(CN2CCN(C(=O)[C@H](C)O)CC2)sc2c(N3CCOCC3)nc(-c3cnc(N)nc3)nc12 measured with SEM cells.
98

Please indicate recorded cell viability of CO[C@H]1/C=C/O[C@@]2(C)Oc3c(C)c(O)c4c(O)c(c5c(nc6cc(C)ccn65)c4c3C2=O)NC(=O)/C(C)=C\C=C\[C@H](C)[C@H](O)[C@@H](C)[C@@H](O)[C@@H](C)[C@H](OC(C)=O)[C@@H]1C measured with SEM cells.
100

Please indicate recorded cell viability of CNC(=O)c1ccc(-c2cnc3ncc(Cc4ccc5ncccc5c4)n3n2)cc1F measured with SEM cells.
108

Please indicate recorded cell viability of CCc1cncnc1N1CCN(Cc2nc3cc(C(F)(F)F)ccc3[nH]2)CC1 measured with SEM cells.
107
